What concentration at 4 h was measured for each of the following?
procedure-details: PCB52 and monohydroxylated metabolite tissue levels by GC-MS/MS after 4 h nose-only inhalation
Type: in vivo, Sprague–Dawley rats
condition-parameters: female, Sprague-Dawley, rat, cecum, inhaled, female, high dose, mean; read-out: PCB or metabolite detected level, Cecum
Give your result in ng/g as a bare value.

IN: Look up concentration at 4 h for this compound: `Clc1ccc(Cl)c(-c2cc(Cl)ccc2Cl)c1`
OUT: 1

IN: Look up concentration at 4 h for this compound: `Oc1cc(Cl)c(-c2cc(Cl)ccc2Cl)cc1Cl`
OUT: 3
